// provenance: ChEMBL document CHEMBL4706528

- targetOrSystem: Androgen receptor (Homo sapiens) (UniProt P10275)
- Sequence (P10275 whole entry, the tested form may be a part): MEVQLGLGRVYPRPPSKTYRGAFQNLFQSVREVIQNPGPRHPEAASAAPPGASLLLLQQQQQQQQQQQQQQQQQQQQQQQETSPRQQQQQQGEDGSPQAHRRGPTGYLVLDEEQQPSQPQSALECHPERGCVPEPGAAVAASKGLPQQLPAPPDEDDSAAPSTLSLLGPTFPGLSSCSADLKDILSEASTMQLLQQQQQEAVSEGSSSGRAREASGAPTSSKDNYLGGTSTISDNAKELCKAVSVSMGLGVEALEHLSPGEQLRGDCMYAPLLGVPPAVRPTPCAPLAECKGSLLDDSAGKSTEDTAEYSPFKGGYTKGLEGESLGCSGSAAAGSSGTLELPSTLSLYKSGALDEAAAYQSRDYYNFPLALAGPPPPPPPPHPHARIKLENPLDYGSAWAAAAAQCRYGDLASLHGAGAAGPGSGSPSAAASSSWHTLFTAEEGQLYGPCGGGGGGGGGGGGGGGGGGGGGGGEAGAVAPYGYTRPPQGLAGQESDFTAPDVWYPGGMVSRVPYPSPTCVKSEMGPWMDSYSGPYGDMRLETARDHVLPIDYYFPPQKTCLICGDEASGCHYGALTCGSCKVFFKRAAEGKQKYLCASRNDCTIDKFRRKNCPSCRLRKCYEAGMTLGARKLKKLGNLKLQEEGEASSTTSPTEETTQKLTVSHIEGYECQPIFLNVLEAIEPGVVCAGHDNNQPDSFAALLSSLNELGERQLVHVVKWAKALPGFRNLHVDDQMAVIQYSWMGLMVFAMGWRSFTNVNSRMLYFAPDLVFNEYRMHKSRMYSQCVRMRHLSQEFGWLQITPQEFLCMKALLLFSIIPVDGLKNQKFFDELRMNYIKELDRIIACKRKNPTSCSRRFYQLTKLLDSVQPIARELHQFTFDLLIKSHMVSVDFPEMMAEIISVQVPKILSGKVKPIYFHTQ
- experimentDescription: Binding affinity to androgen receptor LBD (unknown origin) at 10 uM incubated for 4 hrs under dark by fluorescence polarization based binding assay relative to R1881
Returns: string. Value is YES if measured Activity is below 30%, and NO if it is greater than or equal to it.

CC1(C)C(=O)N(c2ccc(C#N)c(C(F)(F)F)c2)C(=S)N1Cc1cn(CCOCCOCCOCCOC(=O)CC23CC4CC(CC(C4)C2)C3)nn1 ... NO
CC1(C)C(=O)N(c2ccc(C#N)c(C(F)(F)F)c2)C(=S)N1Cc1ccc(-n2cc(COCCOCCOCCOCCOC(=O)CC34CC5CC(CC(C5)C3)C4)nn2)cc1 ... NO
CC1(C)C(=O)N(c2ccc(C#N)c(C(F)(F)F)c2)C(=S)N1CCCn1cc(COCCCOC(=O)CC23CC4CC(CC(C4)C2)C3)nn1 ... NO
CC1(C)C(=O)N(c2ccc(C#N)c(C(F)(F)F)c2)C(=O)N1Cc1ccc(-n2cc(COCCOCCOCCOC(=O)CC34CC5CC(CC(C5)C3)C4)nn2)cc1 ... YES
CC1(C)C(=O)N(c2ccc(C#N)c(C(F)(F)F)c2)C(=S)N1Cc1ccc(-n2cc(COCCCOC(=O)CC34CC5CC(CC(C5)C3)C4)nn2)cc1 ... YES

Q) Report whether reported Activity is lower than 30% (strictly) for CC1(C)C(=O)N(c2ccc(C#N)c(C(F)(F)F)c2)C(=O)N1Cc1cn(CCOCCOC(=O)CC23CC4CC(CC(C4)C2)C3)nn1
A) NO

* * *

- targetOrSystem: Androgen receptor (Homo sapiens)
- experimentDescription: Binding affinity to androgen receptor LBD (unknown origin) at 10 uM incubated for 4 hrs under dark by fluorescence polarization based binding assay relative to R1881
The entries below come with measured Activity values attached.
Return type: number; implicit unit %.

Some molecules with recorded Activity:
CC1(C)C(=O)N(c2ccc(C#N)c(C(F)(F)F)c2)C(=S)N1Cc1ccc(-n2cc(COCCOCCOCCOCCOCCOC(=O)CC34CC5CC(CC(C5)C3)C4)nn2)cc1 ... 39.1
CC1(C)C(=O)N(c2ccc(C#N)c(C(F)(F)F)c2)C(=S)N1Cc1ccc(OCCOCCOCCOC(=O)CC23CC4CC(CC(C4)C2)C3)cc1 ... 32
CC1(C)C(=O)N(c2ccc(C#N)c(C(F)(F)F)c2)C(=S)N1CCCCn1cc(COCCOCCOC(=O)CC23CC4CC(CC(C4)C2)C3)nn1 ... 87.8
CC1(C)C(=O)N(c2ccc(C#N)c(C(F)(F)F)c2)C(=O)N1CCCn1cc(COCCOCCOCCOC(=O)CC23CC4CC(CC(C4)C2)C3)nn1 ... 33.9
CC1(C)C(=O)N(c2ccc(C#N)c(C(F)(F)F)c2)C(=S)N1CCCn1cc(COCCOCCOCCOC(=O)CC23CC4CC(CC(C4)C2)C3)nn1 ... 79.5

// below: Activity requested for another molecule
Q) Requested read-out Activity, target or system Androgen receptor (Homo sapiens), entry CC1(C)C(=O)N(c2ccc(C#N)c(C(F)(F)F)c2)C(=S)N1Cc1cn(CCCOC(=O)CC23CC4CC(CC(C4)C2)C3)nn1
A) 52.8

* * *

- Tested on: LNCaP
- experimentDescription: Antiproliferative activity against androgen-positive human LNCaP cells assessed as cell growth inhibition measured after 72 hrs by SRB assay
- Format: functional, cell-based
propertyMeasured: pIC50
In plain terms, pIC50 is the concentration in mol/L turned into minus its base-10 logarithm.

CC1(C)C(=O)N(c2ccc(C#N)c(C(F)(F)F)c2)C(=S)N1CCCn1cc(COCCOCCOCCOCCOC(=O)CC23CC4CC(CC(C4)C2)C3)nn1 ... 5.37
CC1(C)C(=O)N(c2ccc(C#N)c(C(F)(F)F)c2)C(=S)N1CCCn1cc(COCCOCCOC(=O)CC23CC4CC(CC(C4)C2)C3)nn1 ... 5.39
CC1(C)C(=O)N(c2ccc(C#N)c(C(F)(F)F)c2)C(=S)N1CCCn1cc(COCCCOC(=O)CC23CC4CC(CC(C4)C2)C3)nn1 ... 5.18

Q) // query pIC50 value for entry CC1(C)C(=O)N(c2ccc(C#N)c(C(F)(F)F)c2)C(=O)N1CCCn1cc(COCCOCCOC(=O)CC23CC4CC(CC(C4)C2)C3)nn1
A) 5.14
